B1: Cyclin-F, residues 28 to 80; numbered along this chain, P41002 (parent)
chain: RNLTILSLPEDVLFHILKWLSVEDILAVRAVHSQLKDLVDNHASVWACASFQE

variants of: B1; test: abundance fitness (aPCA) (normalised: wild type 0, dead -1); higher = more abundant; growth selection in yeast, the domain comes from the species named; settings: Homo sapiens
Known abundance fitness of a selection of variants
Result type: abundance fitness

1) L20Y :: -0.75
2) I16A :: -0.901
3) W19K :: 0.218
4) N2T :: -0.168
5) D37S :: 0.006
6) D37A :: 0.027
7) V45M :: -0.082
8) R1L :: -0.305
9) F14Y :: -0.153
10) C48M :: -0.238
11) V12H :: -0.732
12) S50H :: -0.319
13) F14E :: -0.074
14) D40R :: -0.749
15) A43W :: -0.264
16) A47Y :: -0.458
17) F14C :: -0.162
18) P9R :: -0.692
19) D24R :: -0.797
20) F51G :: -0.158
21) F51L :: 0.092
22) A43L :: -0.605
23) A30N :: -0.356
24) L38V :: 0.273
25) V31D :: -0.729
26) D11G :: -0.104
27) S44L :: -0.499
28) V28D :: -0.885
29) A30S :: 0.111
30) Q34N :: -0.417
31) V45G :: -0.149
32) E10W :: -0.737
33) L17H :: -0.678
34) L20K :: -0.838
35) S44D :: 0.212
36) E53T :: -0.349
